Reference for the values: patent US20110300156A1

Entries and their % max inhibition of FXa generation values follow.
target: TF (Innovin) (UniProt P13726 33-295, limits assumed); assay: cell-based or functional assay
Form entry: value (%) — number only.

anti-TF HuMab 098 (antibody, V domains shown, Human monoclonal antibody from HuMab mice; also called HuMab-TF-098; HuMab-TF-98) VH: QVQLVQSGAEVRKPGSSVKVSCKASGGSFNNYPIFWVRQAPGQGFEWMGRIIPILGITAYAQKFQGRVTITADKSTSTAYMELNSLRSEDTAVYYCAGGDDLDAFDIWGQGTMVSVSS VL: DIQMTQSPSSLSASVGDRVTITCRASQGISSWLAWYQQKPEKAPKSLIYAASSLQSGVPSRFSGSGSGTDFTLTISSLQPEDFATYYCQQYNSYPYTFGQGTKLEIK :: 14
anti-TF HuMab 013 (antibody, V domains shown, Human monoclonal antibody from HuMab mice; also called HuMab-TF-13) VH: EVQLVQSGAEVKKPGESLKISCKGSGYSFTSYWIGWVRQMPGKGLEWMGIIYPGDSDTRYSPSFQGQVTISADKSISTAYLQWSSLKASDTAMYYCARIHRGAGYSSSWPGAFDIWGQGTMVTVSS VL: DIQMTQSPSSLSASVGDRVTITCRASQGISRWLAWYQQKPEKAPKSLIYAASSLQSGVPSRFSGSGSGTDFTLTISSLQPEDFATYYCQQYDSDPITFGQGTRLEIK :: 31

We now examine a further binder.
-- ask Which % max inhibition of FXa generation value belongs to anti-TF HuMab 025 (antibody, V domains shown, Human monoclonal antibody from HuMab mice) VH: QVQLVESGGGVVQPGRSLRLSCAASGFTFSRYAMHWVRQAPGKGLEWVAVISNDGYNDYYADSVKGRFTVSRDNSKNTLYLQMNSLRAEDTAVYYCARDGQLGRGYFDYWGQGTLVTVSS VL: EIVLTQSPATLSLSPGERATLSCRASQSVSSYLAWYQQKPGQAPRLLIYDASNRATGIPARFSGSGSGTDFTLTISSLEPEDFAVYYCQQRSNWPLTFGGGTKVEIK ?
-- reply 19
